tested on: ASPC-1 tumor-bearing mice; assay: Biodistribution of radionuclide labeled complexes in ASPC-1 tumor-bearing mice; format: in vivo, BALB/c nude mice; details: Stomach, 24 h
MEASURED_ENDPOINT: % ID/g (24 h) Stomach (% ID/g)
Please give a number only; it is taken to be in % ID/g.

Reference set, count: 3
MOLECULE: COc1cccc(OC)c1-c1cc(C(=O)NC2(C(=O)O)C3CC4CC(C3)CC2C4)nn1-c1ccc(NCCCN(C)CCCNC(=O)CN2CCN(CC(=O)[O-])CCN(CC(=O)[O-])CCN(CC(=O)[O-])CC2)cc1C(C)C.[177Lu+3] (stereo not shown) [^177Lu-I-2]
TARGET_OR_SYSTEM: ASPC-1 tumor-bearing mice
UNIT_INFO: % ID/g
EXPERIMENTAL_RESULT: 0.43
//
MOLECULE: COc1cccc(OC)c1-c1cc(C(=O)NC2(C(=O)O)C3CC4CC(C3)CC2C4)nn1-c1ccc(N(C)CCCN(C)CCCN(C)C(=O)CN2CCN(CC(=O)[O-])CCN(CC(=O)[O-])CCN(CC(=O)[O-])CC2)cc1C(C)C.[177Lu+3] (stereo not shown) [^177Lu-I-1]
TARGET_OR_SYSTEM: ASPC-1 tumor-bearing mice
UNIT_INFO: % ID/g
EXPERIMENTAL_RESULT: 0.28
//
MOLECULE: COc1cccc(OC)c1-c1cc(C(=O)NC2(C(=O)O)C3CC4CC(C3)CC2C4)nn1-c1ccc(SCCCN(C)CCCN(C)C(=O)CN2CCN(CC(=O)[O-])CCN(CC(=O)[O-])CCN(CC(=O)[O-])CC2)cc1C(C)C.[177Lu+3] (stereo not shown) [^177Lu-I-8]
TARGET_OR_SYSTEM: ASPC-1 tumor-bearing mice
UNIT_INFO: % ID/g
EXPERIMENTAL_RESULT: 0.69

Prompt: Would you mind telling me what % ID/g (24 h) Stomach value was observed for COc1cccc(OC)c1-c1cc(C(=O)NC2(C(=O)O)C3CC4CC(C3)CC2C4)nn1-c1ccc(NC(=O)CCCN(C)CCCN(C)C(=O)CN2CCN(CC(=O)[O-])CCN(CC(=O)[O-])CCN(CC(=O)[O-])CC2)cc1C(C)C.[177Lu+3] (stereo not shown) [^177Lu-I-5] ?
Completion: 0.28
